Collected ELISA A450 values appear next to each entry.
Target: BSA (UniProt P02769 25-607)
Assay: single-point ELISA, BSA control

Example cases with answers are listed next.
1.13.17-1 (antibody, human IgG1, kappa, V domains shown) VH: QVQLLQSGAAVTKPGASVRVSCEASGYNIRDYFMHWVRQAPGQGLQWVGWINPKTGQPNNPRQFQGRVSLTRHASWDFDTFSFYMDLKALRSDDTAVYFCARQRSDYWDFDVWGSGTQVTVSS VL: DIQMTQSPSSLSASVGDTVTITCQANGYLNWYQQRRGKAPKLLIYDGSKLERGVPSRFSGRRWGQEYNLTINNLQPEDIATYFCQVYEFFGPGTRLDLKR :: 0.06 A450
1.35.35-1 (antibody, human IgG1, kappa, V domains shown) VH: QVQLVQSGAEVKKPGASVRVSCKASGYNIRDYFMHWWRQAPGQGLQWVGWINPKTGQPNNPRQFQGRVTMTRHASWDFDTFSFYMDLSRLRSDDTATYFCARQRTDYWDFDVWGQGTMVTVSS VL: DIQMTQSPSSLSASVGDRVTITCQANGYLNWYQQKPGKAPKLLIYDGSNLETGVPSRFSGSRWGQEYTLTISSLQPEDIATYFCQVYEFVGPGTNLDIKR :: 0.06 A450

Reported ELISA A450 for 1.12.17-1 (antibody, human IgG1, kappa, V domains shown) VH: QVQLLQSGAAVTKPGASVRVSCEASGYNIRDYFIHWVRQAPGQGLQWVGWINPKTGQPNNPRQFQGRVSLTRHASWDFDTFSFYMDLKALRSDDTAVYFCARQRSDYWDFDVWGSGTQVTVSS VL: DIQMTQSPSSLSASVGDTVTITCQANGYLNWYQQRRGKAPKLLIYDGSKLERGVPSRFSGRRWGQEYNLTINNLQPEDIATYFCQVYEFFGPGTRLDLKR : what is it?
0.06 A450
